Ref: ChEMBL document CHEMBL3758128

target: Glutamate receptor 2 (Homo sapiens, UniProt P42262)
Sequence (P42262 whole entry): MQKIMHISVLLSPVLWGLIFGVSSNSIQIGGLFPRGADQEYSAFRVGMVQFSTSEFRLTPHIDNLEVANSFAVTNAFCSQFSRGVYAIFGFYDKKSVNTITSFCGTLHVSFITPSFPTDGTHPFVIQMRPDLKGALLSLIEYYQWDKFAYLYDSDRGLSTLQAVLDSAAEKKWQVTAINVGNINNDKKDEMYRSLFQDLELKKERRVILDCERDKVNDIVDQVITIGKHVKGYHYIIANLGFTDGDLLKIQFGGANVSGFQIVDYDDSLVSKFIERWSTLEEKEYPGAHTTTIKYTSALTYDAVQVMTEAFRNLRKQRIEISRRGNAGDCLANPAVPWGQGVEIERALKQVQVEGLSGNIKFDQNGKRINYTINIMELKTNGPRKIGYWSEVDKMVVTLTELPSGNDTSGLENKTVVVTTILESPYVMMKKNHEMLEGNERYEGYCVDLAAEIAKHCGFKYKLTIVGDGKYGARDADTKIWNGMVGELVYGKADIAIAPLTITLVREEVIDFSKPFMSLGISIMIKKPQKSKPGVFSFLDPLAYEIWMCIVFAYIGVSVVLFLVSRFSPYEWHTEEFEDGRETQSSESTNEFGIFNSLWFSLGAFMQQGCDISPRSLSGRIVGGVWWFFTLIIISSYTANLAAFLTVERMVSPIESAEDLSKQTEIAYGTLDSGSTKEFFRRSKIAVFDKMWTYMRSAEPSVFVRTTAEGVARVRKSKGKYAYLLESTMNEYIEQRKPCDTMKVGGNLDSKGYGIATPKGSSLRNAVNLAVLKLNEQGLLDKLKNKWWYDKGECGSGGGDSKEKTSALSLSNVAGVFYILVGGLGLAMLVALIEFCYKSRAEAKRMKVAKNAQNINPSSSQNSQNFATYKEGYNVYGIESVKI
recorded-metric: Ki
Just so you know, I need the unit written after the number.

Report Ki for N[C@@H](Cc1cc(Cl)c(Cl)c(-c2cncc(O)c2)c1)C(=O)O please. 2260 nM

* * *

Read-out record for Glutamate receptor ionotropic, kainate 1 (Rattus norvegicus): Ki

Look up Ki with Glutamate receptor ionotropic, kainate 1 (Rattus norvegicus) for this compound: COc1cccc(-c2cc(CC(N)C(=O)O)cc(Cl)c2Cl)c1 (racemic) > 50 µM

Quick one: N[C@@H](Cc1cc(Cl)c(Cl)c(-c2cncc(O)c2)c1)C(=O)O > 100 µM

Quick one: NC(Cc1cc(Cl)c(Cl)c(-c2cccc(CO)c2)c1)C(=O)O (racemic) > 50 µM

Quick one: NC(Cc1cc(Cl)c(Cl)c(-c2ccc(O)c(O)c2)c1)C(=O)O (stereo not given) > 50 µM

Quick one: N[C@H](Cc1cc(Cl)c(Cl)c(-c2cncc(O)c2)c1)C(=O)O > 100 µM

* * *

molecular target: Glutamate receptor 2 (Homo sapiens, UniProt P42262); test: Agonist activity at human GluA2(Q)i expressed in HEK293 cells assessed as enhancement of glutamate-evoked desensitized current by whole cell patch clamp method
recorded-metric: EC50 (µM)
Just the number please, in µM, no unit attached.

Report EC50 for NS(=O)(=O)c1cc2c(cc1Cl)NC(C1CC3C=CC1C3)NS2(=O)=O (stereo unspecified) [CYCLOTHIAZIDE] please. 7.6

* * *

biological target: Glutamate receptor 1 (Rattus norvegicus); assay: biochemical
Sequence (P19490 whole entry): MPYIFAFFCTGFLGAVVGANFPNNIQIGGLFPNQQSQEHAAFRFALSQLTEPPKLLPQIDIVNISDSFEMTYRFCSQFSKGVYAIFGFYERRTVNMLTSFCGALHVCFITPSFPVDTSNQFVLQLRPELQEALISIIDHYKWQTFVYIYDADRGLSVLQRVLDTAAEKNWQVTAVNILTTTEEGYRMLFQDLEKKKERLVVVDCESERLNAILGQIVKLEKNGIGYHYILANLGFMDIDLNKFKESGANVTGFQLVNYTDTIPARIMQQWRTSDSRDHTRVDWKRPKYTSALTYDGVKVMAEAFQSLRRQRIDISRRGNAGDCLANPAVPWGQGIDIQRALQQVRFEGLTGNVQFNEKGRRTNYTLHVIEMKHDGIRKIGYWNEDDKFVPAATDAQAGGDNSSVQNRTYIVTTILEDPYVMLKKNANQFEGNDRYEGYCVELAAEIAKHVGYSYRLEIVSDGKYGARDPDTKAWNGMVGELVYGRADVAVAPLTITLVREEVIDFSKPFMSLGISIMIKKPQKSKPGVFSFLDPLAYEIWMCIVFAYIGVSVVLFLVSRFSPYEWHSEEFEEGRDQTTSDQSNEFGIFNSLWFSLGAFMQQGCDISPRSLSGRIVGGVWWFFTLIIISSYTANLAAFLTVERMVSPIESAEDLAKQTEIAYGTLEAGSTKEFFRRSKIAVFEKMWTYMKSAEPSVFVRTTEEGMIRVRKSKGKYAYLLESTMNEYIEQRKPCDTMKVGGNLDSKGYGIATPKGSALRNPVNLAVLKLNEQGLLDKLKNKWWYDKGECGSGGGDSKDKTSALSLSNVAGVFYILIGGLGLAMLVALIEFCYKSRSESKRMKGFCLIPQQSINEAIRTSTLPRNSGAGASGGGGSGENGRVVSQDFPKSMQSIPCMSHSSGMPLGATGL
Description: Displacement of [3H]AMPA from rat cloned GluA1o receptor expressed in sf9 cells incubated for 1 to 2 hrs by liquid scintillation counting method
recorded-metric: pKi
# pKi = -log10(concentration in molar units)

Report pKi for N[C@@H](Cc1cc(Cl)c(Cl)c(-c2cncc(O)c2)c1)C(=O)O please. 5.18

* * *

target: Glutamate receptor 2 (Rattus norvegicus, UniProt P19491); experiment: Antagonist activity against recombinant rat GluA2(Q)i expressed in xenopus oocytes assessed as inhibition of L-glutamate-induced […] by two electrode voltage clamp method
Sequence (P19491 whole entry): as the sequence (P42262 whole entry) above, with M191T, T291A, R764G, A852P counted along it
recorded-metric: IC50 (µM)
Just the number please, in µM, no unit attached.

Look up IC50 with Glutamate receptor 2 (Rattus norvegicus, UniProt P19491) for this molecule: N[C@@H](Cc1cc(Cl)c(Cl)c(-c2cncc(O)c2)c1)C(=O)O 3.7

* * *

Read-out record for Glutamate receptor ionotropic, kainate 2 (Rattus norvegicus, UniProt P42260): Ki

Report Ki for N[C@H](Cc1cc(Cl)c(Cl)c(-c2cncc(O)c2)c1)C(=O)O please. > 100 µM

Quick one: N[C@@H](Cc1cc(Cl)c(Cl)c(-c2cncc(O)c2)c1)C(=O)O > 100 µM

* * *

molecular target: Glutamate receptor 2 (Rattus norvegicus); assay: Displacement of [3H]AMPA from full length rat cloned GluA2(R)o receptor expressed in sf9 cells incubated for 1 to 2 hrs by liquid scintillation counting method
recorded-metric: pKi
# pKi = -log10(concentration in molar units)

Report pKi for N[C@@H](Cc1cc(Cl)c(Cl)c(-c2cncc(O)c2)c1)C(=O)O please. 5.76

Quick one: NC(Cc1cc(Cl)c(Cl)c(-c2cccc(O)c2)c1)C(=O)O (racemic) 5.30

* * *

Read-out record for Glutamate receptor ionotropic, kainate 3 (Rattus norvegicus, UniProt P42264): pKi
pKi: −log10 of the molar value.

Report pKi for N[C@@H](Cc1cc(Cl)c(Cl)c(-c2cncc(O)c2)c1)C(=O)O please. < 4.00

Quick one: N[C@H](Cc1cc(Cl)c(Cl)c(-c2cncc(O)c2)c1)C(=O)O < 4.00
